test: Primary fluorescence-based thiol-reactive (MSTI) qHTS assay for identification of artifact compounds. (AID 1845221); settings: MSTI thiol-reactivity probe, 1 h; series mostly up to 53.8 µM; further: nearly all actives have a fitted effect of over 65% in size
Results filed as inconclusive are left out. Activity calls are given as the source filed them. The call rests on the fitted dose curve; in most records, active means well fitted inhibition curve with a large enough effect; inconclusive means small, poorly fitted or top-dose-only effect; inactive means no such curve, though single readings can be large or run the other way.
Form entry, call: pick from label 1 = active, label 0 = inactive

Q. Returns: the outcome recorded for C/C(=C\C=C\C(C)C1CCC2(C)C3CCC4C(C)(C)C(=O)CCC45CC35CCC12C)C(=O)O (configuration not stated) in this assay.
A. label 0

Q. Input CC1(C)CC[C@]2(C(=O)O)CC[C@]3(C)C(=CCC4[C@@]5(C)C[C@@H](O)[C@H](O)C(C)(C)C5CC[C@]43C)C2C1 (some centres not stated)
A. label 0

Q. Try this compound next: "CC1(C)CC(NC(=O)C(=O)Nc2ccc(Br)cc2)CC(C)(C)N1"
A. label 0

Q. Another: "Cc1cc(OCc2nc(-c3ccccc3Cl)cs2)ccc1OCC(=O)O"
A. label 0

Q. Then "O=C(NCc1cccc(O)c1)c1cc2cc(F)ccc2[nH]1" ?
A. label 0

Q. // next record "COc1cc2oc(-c3ccc(O)cc3O)cc2c(OC)c1CC=C(C)C"
A. label 1

Q. Input "CC1(C)[C@@H](O)CC[C@]2(C)[C@H]3CC=C4[C@@H]5C[C@](C)(C(=O)O)CC[C@]5(C)CC[C@@]4(C)[C@]3(C)CC[C@@H]12"
A. label 0

Q. Lookup "CO[C@H]1C[C@@H]2CC[C@@H](C)[C@@](O)(O2)C(=O)C(=O)N2CCCC[C@H]2C(=O)O[C@H]([C@H](C)C[C@@H]2CC[C@@H](OP(C)(C)=O)[C@H](OC)C2)CC(=O)[C@H](C)/C=C(\C)[C@@H](O)[C@@H](OC)C(=O)[C@H](C)C[C@H](C)/C=C/C=C/C=C/1C"
A. label 0

Q. Next up: C[C@@H]1CC[C@]2(C(=O)OC3OC(CO)C(O)C(O)C3O)CC[C@]3(C)C(=CCC4[C@@]5(C)CC[C@H](O)[C@](C)(C(=O)O)C5CC[C@]43C)C2[C@]1(C)O (some centres not stated)
A. label 0

Q. Try this compound too: CN1C2CCC1CC(OC(=O)[C@H](CO)c1ccccc1)C2 (some centres not stated)
A. label 0

Q. Same lookup for "C[C@@H]1CN(Cc2ccccc2)C[C@H]1c1nc2c(cnn2C2CCOCC2)c(=O)[nH]1" , please.
A. label 0

Q. What about N#C[C@@H]1C[C@H](F)CN1C(=O)CNC1[C@H]2CN(C(=O)c3ccc(F)cc3)C[C@@H]12 (some centres not stated) ?
A. label 0

Q. Also need CC1OC2OC(=O)C3(C)CC4=C(CO)C5=C(CC(=O)C4(C)C(C1=O)C23)C(C)(C)OC(=O)C5 (configuration not stated) , thanks.
A. label 0

Q. Next: CC(C)(C)CCN1C[C@@H]2C(CNC(=O)c3cc(Cl)cc(Cl)c3)[C@@H]2C1 (some centres not stated)
A. label 0

Q. Let us now turn to CC(=O)OC1C(OC(=O)c2ccccc2)C2C(C)(C)CC(=O)CC2(C)C23CCC(C)(C2)C(O)CC13 (configuration not stated)
A. label 0

Q. Another compound to check: C=C1C(=O)OC2CC(C)=C(C(C)CCCO)C(O)C12 (configuration not stated)
A. label 1

Q. Queued: CC(=O)/C=C/[C@H]1[C@](C)(O)[C@@H](O)[C@H](OC(C)=O)C2C(C)(C)CCC[C@@]21C (some centres not stated)
A. label 0

Q. Follow-up entry: Cc1cn(C2C=CC(CO)O2)c(=O)[nH]c1=O (configuration not stated)
A. label 0

Q. Queued: C=C1CCC2C(C(C)(C)O)CCC2(C)CC(O)C(=C)CCC1O (configuration not stated)
A. label 0

Q. And "CO[C@H]1C[C@@H]2CC[C@@H](C)[C@@](O)(O2)C(=O)C(=O)N2CCCC[C@H]2C(=O)O[C@H]([C@H](C)C[C@@H]2CC[C@H](n3cnnn3)[C@H](OC)C2)CC(=O)[C@H](C)/C=C(\C)[C@@H](O)[C@@H](OC)C(=O)[C@H](C)C[C@H](C)/C=C/C=C/C=C/1C" ?
A. label 0

Q. How about COc1c2c(c(C)c3c1C(=O)OC3)OC1(C)CC(O)C34OC(OC)(CC(OC(C)=O)C3(C)C1C2)OC4(C)C (configuration not stated) ?
A. label 0

Q. Also CC(C)=CCCC1(C)C=Cc2c(c(C)cc3c2[nH]c2ccccc23)O1 (configuration not stated) ?
A. label 1

Q. CC(=O)NCC(=O)N1C2CCC1c1cc(Nc3ncc(C(F)(F)F)c(NC4CCC4)n3)ccc12 (configuration not stated) ?
A. label 0

Q. Same thing, different compound: "O=C(/C=C\c1ccc(O)cc1)N[C@@H](Cc1ccc(O)cc1)C(=O)O"
A. label 1

Q. Then this compound: CC1(C)CC[C@]2(C(=O)O)CC[C@]3(C)C(=CCC4[C@@]5(C)CC[C@H](O[C@@H]6O[C@H](C(=O)O)[C@@H](O[C@@H]7OC[C@@H](O)[C@H](O)[C@H]7O)[C@H](O)[C@H]6O)C(C)(C)C5CC[C@]43C)C2C1O (some centres not stated)
A. label 0

Q. Record: CCC(C)C(=O)OC1CC(O)C23C4OCC5(C(O)CC2C1(C)C(O)O4)C3C(=O)C(O)C1(C)C(O)(c2ccoc2)CC2OC251 (configuration not stated)
A. label 0

Q. Note, next up: C=C1C(O)C(O)C2(CC3C(C)=CCC4C(C)(CO)CCCC34C)OC2C1O (configuration not stated)
A. label 0

Q. Next entry: O=C(NCC(O)CO)c1ccncc1Nc1ccc(I)cc1F (configuration not stated)
A. label 0

Q. Okay, and C=C(C(=O)O)C1CCC2(C)CCCC(C)(O)C2C1 (configuration not stated) ?
A. label 1

Q. Try the compound "OCc1ccc(O[C@@H]2O[C@H](CO)[C@@H](O)[C@H](O)[C@H]2O)cc1"
A. label 0

Q. Another compound to check: C=C(C)C(=O)O[C@H]1C[C@@](C)(O)C(=O)CC(O)/C(C)=C\[C@H]2OC(=O)C(=C)[C@H]12 (some centres not stated)
A. label 1

Q. Quick one: O=C(NOCC(O)CO)c1ccc(F)c(F)c1Nc1ccc(I)cc1F (configuration not stated)
A. label 0
